Experiment Notes: S16 Schwann cell PMP22 intronic element firefly luciferase assay (AID 624032); note: nearly all actives have a fitted effect of over 30% in size
Conditions Used: S16 rat Schwann cells, PMP22 element FLuc, 24 h; series mostly up to 57.5 µM
Results filed as inconclusive are left out. Activity calls are given as the source filed them. Calls come from the whole dose curve; as a rule, active = well fitted inhibition curve with a large enough effect; inconclusive = small, poorly fitted or top-dose-only effect; inactive = no such curve, though single readings can be large or run the other way.
Return exactly one item of TRUE (active), FALSE (inactive)

*Q* What outcome does the record of this test show for `CN(Cc1cnc2nc(N)nc(N)c2n1)c1ccc(C(=O)N[C@@H](CCC(=O)O)C(=O)O)cc1` ?
*A* FALSE

*Q* What outcome does the record of this test show for `Cn1ccc2cc3c(cc21)CCN3C(=O)Nc1cccnc1` ?
*A* FALSE

*Q* What outcome does the record of this test show for `CS(=O)(=O)Nc1ccc([N+](=O)[O-])cc1Oc1ccccc1` ?
*A* FALSE

*Q* What outcome does the record of this test show for `Cn1cnc2c1c(=O)[nH]c(=O)n2C` ?
*A* FALSE

*Q* What outcome does the record of this test show for `CC12CC3CC(C)(C1)CC(N)(C3)C2` ?
*A* FALSE

*Q* What outcome does the record of this test show for `NCCc1cnc[nH]1` ?
*A* FALSE

*Q* What outcome does the record of this test show for `Clc1ccc2c(c1)C(N1CCNCC1)=Nc1ccccc1O2` ?
*A* TRUE

*Q* What outcome does the record of this test show for CC(C)NCC(O)COc1ccc(CCOCC2CC2)cc1 (stereo not drawn) ?
*A* FALSE

*Q* What outcome does the record of this test show for `NS(=O)(=O)c1cc2c(cc1Cl)NCNS2(=O)=O` ?
*A* FALSE

*Q* What outcome does the record of this test show for `Cc1cc(C(C)(C)C)c(O)c(C)c1CC1=NCCN1` ?
*A* FALSE

*Q* What outcome does the record of this test show for `O=C(c1ccc(OCCN2CCCCC2)cc1)c1c(-c2ccc(O)cc2)sc2cc(O)ccc12` ?
*A* TRUE

*Q* What outcome does the record of this test show for `CCOC(=O)C(C)(C)Oc1ccc(Cl)cc1` ?
*A* FALSE

*Q* What outcome does the record of this test show for COc1ccccc1OCCNCC(O)COc1cccc2[nH]c3ccccc3c12 (stereo not drawn) ?
*A* TRUE

----------
Record form. Attribute: Potency. Fill in for each entry.
Experiment Notes: qHTS profiling for inhibitors of Plasmodium falciparum proliferation (AID 504749); note: nearly all actives have a fitted effect of over 60% in size; note: potency is the fitted concentration of half-maximal effect
Conditions Used: P. falciparum in erythrocytes, SYBR Green DNA, 72 h; parasite line B
Results filed as inconclusive are left out. Activity calls are given as the source filed them. The call rests on the fitted dose curve; in most records, active means well fitted inhibition curve with a large enough effect; inconclusive means small, poorly fitted or top-dose-only effect; inactive means flat fitted curve, though single readings scatter.

*Q* Hello, please tell me recorded Potency for this one: `O=C1c2c(O)ccc(O)c2C(=O)c2c(NCCNCCO)ccc(NCCNCCO)c21`
*A* 3.16 µM (active)

*Q* Hello, please tell me recorded Potency for this one: CCCNCC(O)COc1ccccc1C(=O)CCc1ccccc1 (configuration not stated)
*A* 0.355 µM (active)

*Q* Hello, please tell me recorded Potency for this one: `O=C(c1ccc(OCCN2CCCCC2)cc1)c1c(-c2ccc(O)cc2)sc2cc(O)ccc12`
*A* 11.2 µM (active)

*Q* Hello, please tell me recorded Potency for this one: `CN(Cc1cnc2nc(N)nc(N)c2n1)c1ccc(C(=O)N[C@@H](CCC(=O)O)C(=O)O)cc1`
*A* 0.141 µM (active)

*Q* Hello, please tell me recorded Potency for this one: `Clc1ccccc1C(c1ccccc1)(c1ccccc1)n1ccnc1`
*A* 0.708 µM (active)

*Q* Hello, please tell me recorded Potency for this one: `CCOC(=O)Nc1ccc(NCc2ccc(F)cc2)nc1N`
*A* 12.6 µM (active)

*Q* Hello, please tell me recorded Potency for this one: `CC[C@@]1(O)C(=O)OCc2c1cc1n(c2=O)Cc2cc3c(CN(C)C)c(O)ccc3nc2-1`
*A* 7.08 µM (active)

----------
Study System: Glutathione peroxidase 1 (Homo sapiens)
Experiment Notes: Primary qHTS Assay for Inhibitors of Recombinant Selenoprotein Glutathione Peroxidase 1 (GPX1) (AID 1845191); note: nearly all actives have a fitted effect of over 65% in size
Conditions Used: recombinant GPX1, GR-coupled NADPH fluorescence, 15 min; series mostly up to 48.8 µM
Results filed as inconclusive are left out. Activity calls are given as the source filed them. Calls follow the shape of the dose curve; as a rule, active = well fitted inhibition curve with a large enough effect; inconclusive = small, poorly fitted or top-dose-only effect; inactive = flat fitted curve, though single readings scatter.
Readout: outcome

Below, each entry is followed by its recorded outcome result.
Molecule: O=C1c2c(O)ccc(O)c2C(=O)c2c(NCCNCCO)ccc(NCCNCCO)c21
outcome: inactive
//
Molecule: Clc1ccccc1C(c1ccccc1)(c1ccccc1)n1ccnc1
outcome: inactive
//
Molecule: CN(Cc1cnc2nc(N)nc(N)c2n1)c1ccc(C(=O)N[C@@H](CCC(=O)O)C(=O)O)cc1
outcome: inactive
//
Molecule: CCOC(=O)c1ncn2c1CN(C)C(=O)c1cc(F)ccc1-2
outcome: inactive
//
Molecule: CCC1(c2ccccc2)C(=O)NCNC1=O
outcome: inactive

# input for lookup
*Q* Give measured outcome for CC(C)NCC(O)COc1ccc(CCOCC2CC2)cc1 (stereo unspecified) (Glutathione peroxidase 1 (Homo sapiens)).
*A* inactive

----------
System: P94_40
Experiment Notes: qHTS profiling for inhibitors of Plasmodium falciparum proliferation (AID 504749); note: nearly all actives have a fitted effect of over 60% in size
Conditions Used: P. falciparum in erythrocytes, SYBR Green DNA, 72 h; series mostly up to 28.7 µM
Description: NIH National Institute of Allergy and Infectious Diseases [NIAID] NIH Chemical Genomics Center [NCGC] […] Because mature erythrocytes lack DNA, only Plasmodium-derived DNA is detected. NCGC Assay Protocol Summary: The SYBR Green viability assay was adapted from a method described previously (Plouffe et al., 2008). […] The following morning, fluorescence intensity at 485(14) nm excitation and 535(25) nm emission wavelengths was measured on an EnVision (Perkin Elmer) plate reader. […]
Records with an inconclusive call do not appear. Calls of active or inactive are those of the source. Calls follow the shape of the dose curve; as a rule, active = well fitted inhibition curve with a large enough effect; inconclusive = small, poorly fitted or top-dose-only effect; inactive = flat fitted curve, though single readings scatter.
Return exactly one item of 1 (yes) (active), 0 (no) (inactive)

*Q* What outcome does the record of this test show for `NC12CC3CC(CC(C3)C1)C2` ?
*A* 0 (no)

*Q* What outcome does the record of this test show for `C[C@](N)(Cc1ccc(O)c(O)c1)C(=O)O` ?
*A* 0 (no)

*Q* What outcome does the record of this test show for `CC(C)C(=O)Nc1ccc([N+](=O)[O-])c(C(F)(F)F)c1` ?
*A* 0 (no)

*Q* What outcome does the record of this test show for `NCCS(=O)(=O)O` ?
*A* 0 (no)

*Q* What outcome does the record of this test show for CC(C)Cc1ccc(C(C)C(=O)O)cc1 (stereo not given) ?
*A* 0 (no)

*Q* What outcome does the record of this test show for `CN1C(C(=O)Nc2ccccn2)=C(O)c2ccccc2S1(=O)=O` ?
*A* 0 (no)

*Q* What outcome does the record of this test show for `Cc1cc(C(C)(C)C)cc(C)c1CC1=NCCN1` ?
*A* 0 (no)

*Q* What outcome does the record of this test show for `CN(C)C(=N)N=C(N)N` ?
*A* 0 (no)

*Q* What outcome does the record of this test show for `CN(C)c1nc(N(C)C)nc(N(C)C)n1` ?
*A* 0 (no)

*Q* What outcome does the record of this test show for `O=C(c1ccc(OCCN2CCCCC2)cc1)c1c(-c2ccc(O)cc2)sc2cc(O)ccc12` ?
*A* 1 (yes)

*Q* What outcome does the record of this test show for `O=C1c2c(O)ccc(O)c2C(=O)c2c(NCCNCCO)ccc(NCCNCCO)c21` ?
*A* 1 (yes)

*Q* What outcome does the record of this test show for `Clc1ccc2nsnc2c1NC1=NCCN1` ?
*A* 0 (no)

*Q* What outcome does the record of this test show for COc1ccccc1OCC(O)CN1CCN(CC(=O)Nc2c(C)cccc2C)CC1 (stereo not given) ?
*A* 0 (no)

*Q* What outcome does the record of this test show for COc1ccccc1OCCNCC(O)COc1cccc2[nH]c3ccccc3c12 (stereo not given) ?
*A* 1 (yes)

*Q* What outcome does the record of this test show for `CC(C)(C)C(=O)Oc1ccc(S(=O)(=O)Nc2ccccc2C(=O)NCC(=O)O)cc1` ?
*A* 0 (no)

*Q* What outcome does the record of this test show for `Cc1cnc(C(=O)NCCc2ccc(S(=O)(=O)NC(=O)NC3CCCCC3)cc2)cn1` ?
*A* 0 (no)

*Q* What outcome does the record of this test show for `Nc1nc2c(ncn2COC(CO)CO)c(=O)[nH]1` ?
*A* 0 (no)

*Q* What outcome does the record of this test show for `NCCc1cnc[nH]1` ?
*A* 0 (no)

*Q* What outcome does the record of this test show for CN1CCN2c3ccccc3Cc3ccccc3C2C1 (stereo not given) ?
*A* 0 (no)

*Q* What outcome does the record of this test show for CC1(CN2CCC(n3c(=O)[nH]c4ccccc43)CC2)OCc2ccccc2-n2cccc21 (stereo not given) ?
*A* 1 (yes)

*Q* What outcome does the record of this test show for CC(C)(Oc1ccc(C2CC2(Cl)Cl)cc1)C(=O)O (stereo not given) ?
*A* 0 (no)

*Q* What outcome does the record of this test show for `OCCN1CCN(CCCN2c3ccccc3Sc3ccc(C(F)(F)F)cc32)CC1` ?
*A* 1 (yes)

*Q* What outcome does the record of this test show for `Cn1c(=O)c2c(ncn2C)n(C)c1=O` ?
*A* 0 (no)

*Q* What outcome does the record of this test show for CC(C)NCC(O)c1ccc(O)c(O)c1 (stereo not given) ?
*A* 0 (no)

*Q* What outcome does the record of this test show for `NCCCCCC(=O)O` ?
*A* 0 (no)

*Q* What outcome does the record of this test show for `NC(=O)NO` ?
*A* 0 (no)

*Q* What outcome does the record of this test show for `CC(=O)OCC(CCn1cnc2cnc(N)nc21)COC(C)=O` ?
*A* 0 (no)

*Q* What outcome does the record of this test show for `CCCCc1oc2ccccc2c1C(=O)c1cc(I)c(OCCN(CC)CC)c(I)c1` ?
*A* 1 (yes)

*Q* What outcome does the record of this test show for `CN1CCC(=C2c3ccccc3C=Cc3ccccc32)CC1` ?
*A* 0 (no)

*Q* What outcome does the record of this test show for `CS(=O)(=O)CCNCc1ccc(-c2ccc3ncnc(Nc4ccc(OCc5cccc(F)c5)c(Cl)c4)c3c2)o1` ?
*A* 0 (no)
